// provenance: patent US20190233498A1

- TEST SYSTEM: T1, human PACAP38 (human, not fully specified; C-terminal lysine is amidated; N-terminal or C-terminal biotin in the HTRF and PC-12 cell binding assays)
- T1 peptide: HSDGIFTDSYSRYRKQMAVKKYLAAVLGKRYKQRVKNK
- ASSAY: cell-based or functional assay
READOUT: IC50, 0.1 nM PACAP38-induced PAC1-R mediated cAMP increase (nM)
The reply should be a number in nM, with the unit left off.

# BINDER, UNIT, VALUE REPORTED
data = [
    ("anti-PACAP antibody Ab14 (antibody, human IgG1, kappa, N297A, V domains shown, full-length rabbit/human chimeric antibody) VH: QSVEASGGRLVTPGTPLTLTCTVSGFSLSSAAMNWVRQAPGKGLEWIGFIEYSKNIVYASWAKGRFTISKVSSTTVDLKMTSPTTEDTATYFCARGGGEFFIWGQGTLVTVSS VL: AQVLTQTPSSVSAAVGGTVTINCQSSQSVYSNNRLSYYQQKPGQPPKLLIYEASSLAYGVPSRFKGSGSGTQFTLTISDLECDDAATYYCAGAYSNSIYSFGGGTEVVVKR", "nM", 0.154),
]

Input line: Determine from records and report IC50, 0.1 nM PACAP38-induced PAC1-R mediated cAMP increase for anti-PACAP antibody Ab17 (antibody, human IgG1, kappa, N297A, V domains shown, full-length rabbit/human chimeric antibody) VH: QSVEESGGRLVTPGTPLTLTCTVSGFSLSSAAMNWVRQAPGKGLEWIGIFDPYSSTYYASWAKGRFTISKTSSTTVDLKMTSPTTEDTATYFCARGGGEFFIWGPGTLVTVSS VL: AQVLTQTPSSVSAAVGGTVTINCQSSQSVYKNKYLSWYQQKVGQPPKFLIYQASNLASGVPSRFKGSGSGTQFTLTISDLECDDAATYYCAGGYSGNMVDFGGGTEVVVKR
Output line: 0.0977

Input line: Indicate the recorded IC50, 0.1 nM PACAP38-induced PAC1-R mediated cAMP increase value for this binder: anti-PACAP antibody Ab9 (antibody, human IgG1, kappa, N297A, V domains shown, full-length rabbit/human chimeric antibody) VH: EQSGGGAEGGLVKPGGSLKLSCKASGFTISRDYWICWVRQAPGKGLEWIGCISAGGGSTDYANWVNGRFTLSRDIDQSTGCLQLNSLTDADTAMYYCAGNLEIWGQGTLVTVSS VL: AQVLTQTPSSVSAAVGGTVTINCQSSPSIYSGAFLSWFQQKPGQPPKFLIYEASKLASGVPSRFSGSGSGTQFTLTISDVQCDDAATYYCLGFYDCSSVDCHAFGGGTEVVVKR
Output line: 0.987
